Hi there, I'd appreciate the recorded pKd for every entry that follows.
# TARGET OR TEST SYSTEM: T1, human CTLA-4-Fc (Chimerigen) (human, UniProt P16410 36-161, limits assumed)
# T1 construct: Bought fusion protein; also called hCTLA4-Fc; not shown: It was captured by an anti-human IgG-Fc antibody
# T1 sequence (looked up): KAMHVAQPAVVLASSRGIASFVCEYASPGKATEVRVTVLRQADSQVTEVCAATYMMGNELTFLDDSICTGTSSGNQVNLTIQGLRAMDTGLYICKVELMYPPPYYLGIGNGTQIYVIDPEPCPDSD
# PROTOCOL TEXT: SPR, Biacore T100, 25 C; CTLA4-Fc captured on anti-human IgG-Fc, mutein as analyte; 1:1 Langmuir fit
Numbers only, as −log10 of the molar value.

Previously resolved entries follow.
So what does the record say about pKd for hNGALM4 (designed binder) QDSTSDLIPAPPLSKVPLQQNFQDNQFHGKWYVVGLAGNRILRDDQHPMPMYATIYELKGDKSYNVTSVISSHKKCLYPIATFVPGSQPGEFTLGNIKSYGDKWSYLVRVVSTDYNQYAVVFFKHADSNYESFSITIYGRTKELASELKENFIRFSKSLGLPENHIVFPVPIDQCIDG ?
9.46

Moving on to hNGALM7 (designed binder) QDSTSDLIPAPPLSKVPLQQNFQDNQFHGKWYVVGLAGNRILRLDQHPMPMYATIYELKGDKSYNVTSVISSHKKCLYPIATFVPGSQPGEFTLGNIRSYGDKTSYLVRVVSTDYNQYAVVFFKHADTNYESFSITIYGRTKELASELKENFIRFSKSLGLPENHIVFPVPIDQCIDGSAWSHPQFEK
9.18

Dear colleague, could you send me pKd for each of the items below? Thanks.
1. hNGALM3 (designed binder) QDSTSDLIPAPPLSKVPLQQNFQDNQFHGKWYVVGLAGNRILRQDQHPMLMYATIYELKGDKSYNVTSVISSHKKCLYPIATFVPGSQPGEFTLGNIKSYGDKVSYLVRVVSTDYNQYAVVFFKHADTNYESFSITIYGRTKELASELKENFIRFSKSLGLPENHIVFPVPIDQCIDGSAWSHPQFEK
2. hNGALM6 (designed binder) QDSTSDLIPAPPLSKVPLQQNFQDNQFHGKWYVVGLAGNRILRSDQHPMPMYATIYELKGDKSYNVTSVISSHKKCLYSIATFVPGSQPGEFTLGNIKSYGDKESYLVRVVSTDYNQYAVVFFKYASDNDESFSITIYGRTKELASELKENFIRFSKSLGLPENHIVFPVPIDQCIDGSAWSHPQFEK
3. hNGALM2 (designed binder) QDSTSDLIPAPPLSKVPLQQNFQDNQFHGKWYVVGLAGNRLLRDDQHPMDMYATIYELKGDKSYNVTSVISSHKKCLYPIATFVPGSQPGEFTLGNIKSYGDKWSYLVRVVSTDYNQYAVVFFKHADTNYESFSITIYGRTKELASELKENFIRFSKSLGLPENHIVFPVPIDQCIDGSAWSHPQFEK
4. hNGALM5 (designed binder) QDSTSDLIPAPPLSKVPLQQNFQDNQFHGKWYVVGLAGNRILRSDQHPMRMYATIYELKGDKSYNVTSVISSHKKCLYTIATFVPGSQPGEFTLGNIKSYGDKWSYLVRVVSTDYNQYAVVFFKHADTNYESFSITIYGRTKELASELKENFIRFSKSLGLPENHIVFPVPIDQCIDGSAWSHPQFEK

1. 9.34
2. 9.23
3. 9.16
4. 9.13
